System: LXRb:RXRa (NR concentration 270 nM, RXRa partner concentration 90 nM)
Experiment: PBM binding z-score (relative to random genomic background probes); higher = stronger binding; sequences stand for … in GC…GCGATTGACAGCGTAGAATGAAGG
Outcome: yes for PBM binding z-score of at least 2; no for anything lower.

Recorded results for 5 sequences are shown here.
INSERT INTO results (query_sequence, class_assignment) VALUES
  ('CGTCCAAGGTCATTGCTAGGTCAGTGAAAGCATT', 'yes'),
  ('CCGACTGGGGCAAGGTTACGATAACGCACAGCCA', 'no'),
  ('ACTAGTTGGTCAGCAGAGGTCACACACAATTCGG', 'yes'),
  ('GCTCTGAGGACAAGGTCAGAGCTTTGTCCGTAGA', 'no'),
  ('TCATATAGGTAAAAAGTGAAAGTCGGTGTGGTAA', 'no');

Prompt: Test whether the sequence TCTGGTAGATCAATAGAGGTTAAGAAAGTGCGCT records PBM binding z-score of 2 or higher.
Completion: no

---

Known PBM binding z-score of a selection of sequences
System: LXRb:RXRa (NR concentration 270 nM, RXRa partner concentration 90 nM)
Experiment: PBM binding z-score (relative to random genomic background probes); higher = stronger binding; sequences stand for … in GC…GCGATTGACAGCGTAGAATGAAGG
The reply should be a number, written without any unit.

INSERT INTO measurements (query_sequence, measured_endpoint, reported_value) VALUES
  ('ATCTCTAGGTAAAGATAGGTCAGTGAATGCAAAT', 'PBM binding z-score', 2.53),
  ('TCTTGTAGATCAACACGAGGTTAAGAAAGATCGA', 'PBM binding z-score', 1.01),
  ('ATATGTAGGTTCAGGGTCATTCAGGTTGGTTCGC', 'PBM binding z-score', 4.44);

Prompt: Specify reported PBM binding z-score for the sequence shown: CCTTACGGGTCACTCCAAGTTATAGCATCGGAGT
Completion: 2.99

Prompt: Specify reported PBM binding z-score for the sequence shown: AGAATGCGGTTACCAAAGATCAGGGAAACGCTTG
Completion: -0.204

Prompt: Specify reported PBM binding z-score for the sequence shown: GCTTGTAGATCAAGGTCAAGAAAGACTAAGCTAA
Completion: 3.02

---

Test system: PPARg homodimer (NR concentration 180 nM)
Experiment: PBM binding z-score (relative to random genomic background probes); higher = stronger binding; sequences stand for … in GC…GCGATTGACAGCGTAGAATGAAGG
Outcome: true (1) for PBM binding z-score of at least 1; false (0) for anything lower.

INSERT INTO measurements (query_sequence, class_assignment) VALUES
  ('TCTGCTAGGTCAGTTGGTCTGCTAACGAGCTGCC', 'false (0)'),
  ('CCTCGGAGGACAGGAGGTCAGAGCTGTCCGCTTT', 'true (1)'),
  ('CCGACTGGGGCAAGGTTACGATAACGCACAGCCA', 'false (0)');

Prompt: Test whether the sequence ACTAGCAGGCCAAGTTTGTGTCACTCAAACAAAG records PBM binding z-score of 1 or higher.
Completion: false (0)

Prompt: Test whether the sequence AGAGCGAGGGCAATGAGTTGATAGCACGGGTGGC records PBM binding z-score of 1 or higher.
Completion: false (0)

Prompt: Test whether the sequence TCGAGTAGGCTAGTCGGGGCATTCAGCCAACATA records PBM binding z-score of 1 or higher.
Completion: false (0)

Prompt: Test whether the sequence AGTCAAAGTTCAGGACCAGGTAACGTAAAGCACG records PBM binding z-score of 1 or higher.
Completion: true (1)

Prompt: Test whether the sequence AATACAGGGTCATCGTAGGCCCGAGTACGCACAG records PBM binding z-score of 1 or higher.
Completion: true (1)

Prompt: Test whether the sequence GCTAGCAGGCCATTTGGATCACTCAATGACGGGC records PBM binding z-score of 1 or higher.
Completion: false (0)

Prompt: Test whether the sequence TCATGTAGATCAAGCAGGTTAAGAAAGCCTGAGT records PBM binding z-score of 1 or higher.
Completion: false (0)

Prompt: Test whether the sequence CTCAAAAGGTCGGTTGAGGTGAGTATACGGATAA records PBM binding z-score of 1 or higher.
Completion: false (0)

Prompt: Test whether the sequence GCAGACAGGTGAAACGCAGGTACCTCAGGGTGGC records PBM binding z-score of 1 or higher.
Completion: false (0)

---

Test system: RARb:RXRa (NR concentration 270 nM, RXRa partner concentration 90 nM)
Test: PBM binding z-score (relative to random genomic background probes); higher = stronger binding; sequences stand for … in GC…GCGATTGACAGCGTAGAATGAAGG
Known PBM binding z-score of a selection of sequences

Prompt: Specify reported PBM binding z-score for the sequence shown: GCTAGTTGGTCAGTAAAAGGTCAAACACCGGTCG
Completion: 4.13

Prompt: Specify reported PBM binding z-score for the sequence shown: GGAATGAGGGCAAAGTTGATAGCATCTGTCGACG
Completion: 2.36

Prompt: Specify reported PBM binding z-score for the sequence shown: CCAGACAAGTGAGAAGGTAACTCAGCCTCGATTA
Completion: 0.0534

Prompt: Specify reported PBM binding z-score for the sequence shown: ACAGACAGCTGAGTGAAGGTAACTCAGCTGGACG
Completion: -0.274

Prompt: Specify reported PBM binding z-score for the sequence shown: CCTCGGAGGACAACAGGAGGTCAGAGCGGCCAGA
Completion: 3

Prompt: Specify reported PBM binding z-score for the sequence shown: CCGAGTAGGTTATGGGGAATTCAGGCAACGGTGA
Completion: 0.784

---

Tested on: PPARg DBDmut IVT, anti-PPARg (DBD mutation: PPARg1 K132A/R137A, NR concentration 270 nM)
Experiment: PBM binding z-score (relative to random genomic background probes); higher = stronger binding; sequences stand for … in GC…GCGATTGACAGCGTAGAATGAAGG
Outcome: Y for PBM binding z-score of at least -0.08; N for anything lower.

Recorded results for 5 sequences are shown here.
INSERT INTO measurements (query_sequence, class_assignment) VALUES
  ('CATACAGGGTCAGCTAGGCAAGAGTAGGGACGGC', 'Y'),
  ('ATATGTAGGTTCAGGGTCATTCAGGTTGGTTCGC', 'Y'),
  ('AGAATGAGGTTAAGATCAGGGCAACAGAATACAT', 'Y'),
  ('ACCTCTAGGTAACAAGTTCAGTGAAAGAGAGGAC', 'Y'),
  ('TCTAGTTGGCCACGGAGGTCACACACGACGGGTA', 'Y');

Prompt: Test whether the sequence CCTGCTAGGTCATGGTCAGCTGATCTACAGTATG records PBM binding z-score of -0.08 or higher.
Completion: Y

Prompt: Test whether the sequence ATCTCTAGGTAACAAGTTCACTGAAAGAGAGGAC records PBM binding z-score of -0.08 or higher.
Completion: Y

Prompt: Test whether the sequence CGAACTAGGTCATTGACCGGACAGTGAATAGTAA records PBM binding z-score of -0.08 or higher.
Completion: Y

Prompt: Test whether the sequence GATACAGGGTCAAGGCCAGAGTGCGCGTATTGAT records PBM binding z-score of -0.08 or higher.
Completion: Y

Prompt: Test whether the sequence GCTTACGGGTCAAGGGTTATAGCATGAATAGAAT records PBM binding z-score of -0.08 or higher.
Completion: Y

Prompt: Test whether the sequence AGTTACGGGTCAACGAGGTTATAGCACGCGTATA records PBM binding z-score of -0.08 or higher.
Completion: Y

Prompt: Test whether the sequence CCTGCTAGGTCATGGTCAGCCAATCTACAGTATG records PBM binding z-score of -0.08 or higher.
Completion: Y

Prompt: Test whether the sequence GCTATTAGTTGAAAGGGCAACCTAATGATTCTCG records PBM binding z-score of -0.08 or higher.
Completion: Y

Prompt: Test whether the sequence ATACCAAGGTGATCGTGAGGACGTTGATACTAAC records PBM binding z-score of -0.08 or higher.
Completion: N

Prompt: Test whether the sequence GCAGACAGCTGAAACGCAGGTAACTCAGGGTGGC records PBM binding z-score of -0.08 or higher.
Completion: N

Prompt: Test whether the sequence TAGCCTAGGTCATGCCGGCCAGTATAGTGTCGGC records PBM binding z-score of -0.08 or higher.
Completion: N

Prompt: Test whether the sequence GCTGCTAGGTCAAGTTGGTCAGCTAACGGGTACG records PBM binding z-score of -0.08 or higher.
Completion: N

Prompt: Test whether the sequence GCTGCTAGGTCACGTTGGTCAGCTAACGGGTACG records PBM binding z-score of -0.08 or higher.
Completion: N

Prompt: Test whether the sequence CGTCAAAGTTCAACTAAGGTAACGTAAAGCACGC records PBM binding z-score of -0.08 or higher.
Completion: Y

Prompt: Test whether the sequence TGATATAGGTAAAAGGTGAAAGTCGGTGTGGTAA records PBM binding z-score of -0.08 or higher.
Completion: Y

Prompt: Test whether the sequence GCTAGCAGGCCCTTTGGGTCACTCAATGACGGGC records PBM binding z-score of -0.08 or higher.
Completion: N

Prompt: Test whether the sequence TCGAGTAGGTTAGCAATGGGGCATTCAGCTTTCT records PBM binding z-score of -0.08 or higher.
Completion: N

Prompt: Test whether the sequence ATCTATAGGTAACCAAGTTCAGTGAATGCCGAAC records PBM binding z-score of -0.08 or higher.
Completion: Y

Prompt: Test whether the sequence CCTAGCAGGCCAATCTGGGCCACTCAAGGCTTGA records PBM binding z-score of -0.08 or higher.
Completion: N

Prompt: Test whether the sequence TCAGACAGGTGTAGGTAACTCAGGTACGCAGTCG records PBM binding z-score of -0.08 or higher.
Completion: N

Prompt: Test whether the sequence CCTAGCAGGCCAATCTGGCTCACTCAAGGCTTGA records PBM binding z-score of -0.08 or higher.
Completion: N

Prompt: Test whether the sequence TCTTGTAGATCAATCAGGTTAAGAAAGCCTGAGT records PBM binding z-score of -0.08 or higher.
Completion: Y

Prompt: Test whether the sequence TCTTGTACATCAATAGAGGTTAAGAAAGTGCGCT records PBM binding z-score of -0.08 or higher.
Completion: Y
